# test: Drug solubility in water, DMSO and DCM (HPLC of filtered supernatant)
# reported.conditions: DMSO, organic solvent or mixture, thermodynamic from solid
result.type: solubility

Record excerpt, results attached:
compound: CCOC(=O)CCC(=O)O[C@@H](CNC(C)(C)C)COc1nsnc1N1CCOCC1.O=C(O)/C=C\C(=O)O [Compound 5, Timolol-O-Ethylsuccinate Maleate]
solubility: > 50 mg/mL
--
compound: C=C(CC)C(=O)c1ccc(OCC(=O)O[C@@H](C)C(=O)O[C@@H](C)C(=O)O[C@@H](C)C(=O)O[C@@H](C)C(=O)O[C@@H](C)C(=O)O[C@@H](C)C(=O)O[C@@H](C)C(=O)O[C@@H](C)C(=O)OCC)c(Cl)c1Cl [Compound 26]
solubility: > 50 mg/mL
--
compound: CCOC(=O)/C=C\C(=O)O[C@@H](CNC(C)(C)C)COc1nsnc1N1CCOCC1.O=C(O)/C=C\C(=O)O [Compound 8, Timolol-O-Ethylmaleate-Maleic Acid]
solubility: > 50 mg/mL

Give the reported value of solubility for this record: C=C(CC)C(=O)c1ccc(OCC(=O)O[C@@H](C)C(=O)O[C@@H](C)C(=O)OCC)c(Cl)c1Cl [Compound 2]
> 50 mg/mL

Consider the compound CCN[C@H]1C[C@H](C)S(=O)(=O)c2sc(S(N)(=O)=O)cc21 [Dorzolamide, reference compound] . State its measured solubility.
< 1 mg/mL
